- study.system: T1, human CLDN6 fused to GFP, expressed on engineered HEK293T cells (HEK293T-CLDN6-mGFP) (human, UniProt P56747 1-220)
- T1 construct: It calls residues 1-21 a signal peptide; also called Claudin-6; HEK293T-CLDN6-mGFP Artificial CLDN6+; not shown: mGFP tag
- T1 sequence: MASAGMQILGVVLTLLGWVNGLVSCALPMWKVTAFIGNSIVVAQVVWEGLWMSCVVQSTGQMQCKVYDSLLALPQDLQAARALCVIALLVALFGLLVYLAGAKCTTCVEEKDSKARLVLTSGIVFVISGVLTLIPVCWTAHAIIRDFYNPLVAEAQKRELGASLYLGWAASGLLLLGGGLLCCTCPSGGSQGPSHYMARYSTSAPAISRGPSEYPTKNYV
- assay: FACS, AF647-labelled mAb, HEK293T-CLDN6-mGFP cells
pEC50: −log10 of the molar value.
pEC50: recorded values
recorded.endpoint: pEC50

>>> observed_result("AB8 (antibody, V domains shown, Labelled with Alexa Fluor 647 NHS ester for FACS) VH: QVQLQQSGAELARPGASVKMSCKASGYTFTTYTMHWLKQRPGQGLEWIGYINPRSGYSNYNQKFKDKATLTADKSSNTAYMQLNTLTSEDSKVYYCSRGELGGFAYWGQGTLVTVSA VL: DVVMTQTPLSLPVSLGDQASISCRSSQSLVHSDGNTYLYWYLQKPGQSPKLLIYKVSNRFSGVPDRFSGSGSGTDFTLKISRVEAEDLGVYFCSQSTHVPYTFGGGTKLEIK")
5.72
>>> observed_result("AB17 (antibody, V domains shown, Labelled with Alexa Fluor 647 NHS ester for FACS) VH: QVQLQQSGAELAKPGASVKMSCKASGYTFTGYWMHWVKQRPGQGLEWLGYINPSTGYTESNQKFKDKATLTADKSSTTAYMQLRSLTPEDSAVYYCAREGITTVLVDYWGQGTTLTVSS VL: QIVLTQSPAIMSASLGERVTMTCTASSSVSSSYLHWYQQKPGSSPKLWIYSTSNLASGVPARFSGSGSGTSYSLTISSMEAEDAATYYCHQYHRSPPTFGAGTKLELK")
5.58
